# TARGET OR TEST SYSTEM: MKNK2 (human) (UniProt Q9HBH9)
# Sequence (Q9HBH9 whole entry, looked up): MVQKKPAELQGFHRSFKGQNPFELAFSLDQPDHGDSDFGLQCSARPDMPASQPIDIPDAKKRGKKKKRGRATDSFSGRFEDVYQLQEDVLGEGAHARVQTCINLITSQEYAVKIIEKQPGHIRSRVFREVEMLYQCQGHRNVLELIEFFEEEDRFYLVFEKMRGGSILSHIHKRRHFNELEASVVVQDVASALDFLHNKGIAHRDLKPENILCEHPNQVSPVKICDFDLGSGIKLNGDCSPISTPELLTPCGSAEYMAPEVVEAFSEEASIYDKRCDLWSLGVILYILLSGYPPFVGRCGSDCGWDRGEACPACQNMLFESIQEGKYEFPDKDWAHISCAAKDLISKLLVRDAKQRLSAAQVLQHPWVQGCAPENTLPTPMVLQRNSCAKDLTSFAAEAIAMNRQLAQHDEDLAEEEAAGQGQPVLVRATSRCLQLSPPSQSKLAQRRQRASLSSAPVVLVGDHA
pIC50: −log10 of the molar value.
MEASUREMENT NAME: pIC50

* Cc1cc(NC(=O)c2cccc(NC(=O)/C=C/CN(C)C)c2)ccc1Nc1nccc(-c2cccnc2)n1 | 6.62

====

Consider the following compounds and their measured kinase still bound, per cent of control readings.
# TARGET OR TEST SYSTEM: UniProtKB P48736
# Sequence (P48736 whole entry, looked up): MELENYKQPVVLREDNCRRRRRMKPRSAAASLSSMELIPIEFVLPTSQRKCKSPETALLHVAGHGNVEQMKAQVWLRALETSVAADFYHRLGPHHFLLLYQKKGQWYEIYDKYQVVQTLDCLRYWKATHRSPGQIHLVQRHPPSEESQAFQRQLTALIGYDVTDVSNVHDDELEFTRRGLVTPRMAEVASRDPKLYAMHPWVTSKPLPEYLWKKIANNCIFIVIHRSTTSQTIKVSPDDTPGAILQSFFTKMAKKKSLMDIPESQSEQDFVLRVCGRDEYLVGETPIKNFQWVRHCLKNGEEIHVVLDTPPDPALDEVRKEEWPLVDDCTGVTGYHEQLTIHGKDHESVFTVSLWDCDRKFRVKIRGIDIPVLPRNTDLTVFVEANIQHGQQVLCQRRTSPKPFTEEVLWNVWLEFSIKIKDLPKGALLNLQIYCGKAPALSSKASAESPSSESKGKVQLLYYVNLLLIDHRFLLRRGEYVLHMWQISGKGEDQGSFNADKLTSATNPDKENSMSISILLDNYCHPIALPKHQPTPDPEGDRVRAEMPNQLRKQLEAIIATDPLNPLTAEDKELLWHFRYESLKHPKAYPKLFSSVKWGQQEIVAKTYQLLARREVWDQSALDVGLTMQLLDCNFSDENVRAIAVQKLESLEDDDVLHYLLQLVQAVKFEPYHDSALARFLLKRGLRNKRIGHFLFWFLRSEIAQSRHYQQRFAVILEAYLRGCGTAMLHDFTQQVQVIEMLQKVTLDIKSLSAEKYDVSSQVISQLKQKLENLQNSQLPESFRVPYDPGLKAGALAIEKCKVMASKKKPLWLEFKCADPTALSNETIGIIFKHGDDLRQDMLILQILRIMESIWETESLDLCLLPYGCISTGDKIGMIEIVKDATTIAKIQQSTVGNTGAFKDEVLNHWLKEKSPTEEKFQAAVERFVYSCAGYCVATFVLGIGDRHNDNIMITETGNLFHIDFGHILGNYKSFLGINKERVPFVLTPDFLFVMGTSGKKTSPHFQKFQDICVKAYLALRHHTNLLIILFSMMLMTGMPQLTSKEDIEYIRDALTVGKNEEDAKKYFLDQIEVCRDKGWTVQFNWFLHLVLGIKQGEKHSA
# TEST PROTOCOL: KINOMEscan competition binding
# ASSAY CONTEXT: compound 1.0 µM
MEASUREMENT NAME: kinase still bound, per cent of control (%)

• CN(C)C/C=C/C(=O)Nc1cccc(C(=O)Nc2ccc(Nc3nccc(/C(C#N)=C4\Nc5ccccc5S4)n3)cc2)c1 = 51
• CN(C)C/C=C/C(=O)Nc1cccc(C(=O)Nc2ccc(Nc3nccc(-c4cccnc4)n3)cc2)c1 = 21
• Cc1cc(NC(=O)c2cccc(NC(=O)/C=C/CN(C)C)c2)ccc1Nc1nccc(-c2cccnc2)n1 = 100
• CN(C)C/C=C/C(=O)Nc1cccc(C(=O)Nc2ccc(Nc3nccc(-c4c(-c5ccccc5)nn5ccccc45)n3)cc2)c1 = 84
